Where do these numbers come from? They come from ChEMBL document CHEMBL1155364.

Give measured Papp for each item. Keep answers brief.
assay: Permeability across monolayer of human Caco-2 cell; format: ADME, cell-based; details: read-out: permeability
Provide only the numeric value, understood in ×10⁻⁶ cm/s.

Form field: reported Papp of CC(C)(C)C1CN(C(=O)c2ccccc2)CCN1C(=O)C(=O)c1c[nH]c2cccc(F)c12 (centres undefined)
17

Form field: reported Papp of CC1CN(C(=O)c2ccccc2)CCN1C(=O)C(=O)c1c[nH]c2cccc(F)c12 (centres undefined)
7.2

Form field: reported Papp of C[C@H]1CN(C(=O)c2ccccc2)CCN1C(=O)C(=O)c1c[nH]c2cccc(F)c12
8.8

Form field: reported Papp of CCCC1CN(C(=O)C(=O)c2c[nH]c3cccc(F)c23)CCN1C(=O)c1ccccc1 (centres undefined)
15.4

Form field: reported Papp of CC(C)(C)C1CN(C(=O)C(=O)c2c[nH]c3cccc(F)c23)CCN1C(=O)c1ccccc1 (centres undefined)
19

Form field: reported Papp of CC(C)C1CN(C(=O)c2ccccc2)CCN1C(=O)C(=O)c1c[nH]c2cccc(F)c12 (centres undefined)
16.5

Form field: reported Papp of C[C@@H]1CN(C(=O)c2ccccc2)CCN1C(=O)C(=O)c1c[nH]c2cccc(F)c12
5.4

Form field: reported Papp of CCC1CN(C(=O)C(=O)c2c[nH]c3cccc(F)c23)CCN1C(=O)c1ccccc1 (centres undefined)
17.1

Form field: reported Papp of COc1cccc2[nH]cc(C(=O)C(=O)N3CCN(C(=O)c4ccccc4)CC3)c12
4.3

Form field: reported Papp of O=C(C(=O)N1CCN(C(=O)c2ccccc2)CC1)c1c[nH]c2cccc(F)c12
4.7

Form field: reported Papp of CCCCCC1CN(C(=O)C(=O)c2c[nH]c3cccc(F)c23)CCN1C(=O)c1ccccc1 (centres undefined)
6.9

Form field: reported Papp of CCC1CN(C(=O)c2ccccc2)CCN1C(=O)C(=O)c1c[nH]c2cccc(F)c12 (centres undefined)
15

Form field: reported Papp of CC(C)CC1CN(C(=O)c2ccccc2)CCN1C(=O)C(=O)c1c[nH]c2cccc(F)c12 (centres undefined)
17.1
